inhibition at 10 µM listing for selected molecules.
Test system: RAW264.7
TEST METHOD NOTES: Antiinflammatory activity in mouse RAW264.7 cells assessed as inhibition of LPS-induced NO production at 10 uM after 24 hrs by Griess reagent based assay relative to control
Format: functional
EXPERIMENTAL SETUP: RAW264.7, 24 h

SMILES RECORD	inhibition at 10 µM / %
CC(C)=CCc1c(O)cc2occ(-c3ccc(O)cc3)c(=O)c2c1O	0
CC(C)=CCc1cc([C@@H]2CC(=O)c3ccc(O)cc3O2)cc2c1OC(C)(C)C=C2	17
COc1c(/C=C/C(=O)c2ccc(O)c(O)c2)ccc(O)c1CC=C(C)C	85
CC(C)=CCc1cc2c(=O)cc(-c3ccc(O)cc3)oc2cc1O	11
C=CC(C)(C)c1cc(/C=C/C(=O)c2ccc(O)cc2)c(OC)cc1O	39

====

Test system: RAW264.7
TEST METHOD NOTES: Antiinflammatory activity in mouse RAW264.7 cells assessed as inhibition of LPS-induced NO production at 10 uM after 24 hrs by Griess reagent based assay relative to control
Type: functional
EXPERIMENTAL SETUP: RAW264.7, 24 h
EXPERIMENTAL READOUT: inhibition at 10 µM (%)

SMILES RECORD	EXPERIMENTAL READOUT	VALUE
C=C(C)[C@H](C)c1cc(/C=C/C(=O)c2ccc(O)cc2)c(OC)cc1O	inhibition at 10 µM	55
CC(C)=CCc1c(O)cc(O)c2c(=O)cc(-c3ccc(O)cc3)oc12	inhibition at 10 µM	58
CC1(C)C=Cc2c(O)ccc(-c3coc4cc(O)cc(O)c4c3=O)c2O1	inhibition at 10 µM	21
CC(C)=CCc1cc([C@@H]2CC(=O)c3ccc(O)c(CC=C(C)C)c3O2)ccc1O	inhibition at 10 µM	6
CC1(C)C=Cc2c(ccc(-c3coc4cc(O)cc(O)c4c3=O)c2O)O1	inhibition at 10 µM	10

====

TARGET OF ASSAY: Mushroom tyrosinase (Agaricus bisporus) (UniProt O42713+Q00024+C7FF04+C7FF05)
TEST METHOD NOTES: Inhibition of mushroom tyrosinase at 10 uM using L-tyrosine as substrate incubated for 15 mins followed by substrate addition relative to control

SMILES RECORD	TARGET OF ASSAY	inhibition, %
CC(C)=CCc1c(O)ccc([C@H]2COc3cc(O)c(CC=C(C)C)c(O)c3C2=O)c1O	Mushroom tyrosinase (Agaricus bisporus) (UniProt O42713+Q00024+C7FF04+C7FF05)	7
COc1ccc(-c2coc3c(O)c(O)c(CC=C(C)C)cc3c2=O)cc1	Mushroom tyrosinase (Agaricus bisporus) (UniProt O42713+Q00024+C7FF04+C7FF05)	7
O=C1C[C@@H](c2ccc(O)cc2)Oc2cc(O)cc(O)c21	Mushroom tyrosinase (Agaricus bisporus) (UniProt O42713+Q00024+C7FF04+C7FF05)	10
